Test system: Amaranthus palmeri (AMAPA)
Test: Post-emergence efficacy, Method A
Type: in vivo
Settings: Amaranthus palmeri, post-emergence, 312 h; Application Rate 500 g/Ha; evaluated after 13 days; Method A; read-out: Control of weed species after post-emergence application, AMAPA (100=total damage to plant; 0=no damage to plant)
Labelling field: enter class 1 if recorded pest or weed control at 500 g/ha is less than 90%. Enter class 0 if it equals or exceeds that cut-off.

Record excerpt, results attached:
Qu. Quick check: does `O=S(=O)([O-])OCC[n+]1ccc(-c2ncccn2)cn1` have pest or weed control at 500 g/ha under 90%?
Ans. class 0

Qu. Quick check: does `Cc1cnc(-c2cc[n+](CCC(=O)O)nc2)c(C)c1` have pest or weed control at 500 g/ha under 90%?
Ans. class 1

Qu. Quick check: does O=C(O)C(O)C[n+]1ccc(-c2ccncn2)cn1 (centres unmarked) have pest or weed control at 500 g/ha under 90%?
Ans. class 0

Qu. Quick check: does O=C(O)C(O)C[n+]1ccc(-c2ncccn2)cn1 (centres unmarked) have pest or weed control at 500 g/ha under 90%?
Ans. class 0

Qu. Quick check: does CC(CNS(=O)(=O)[O-])[n+]1ccc(-c2ncccn2)cn1 (centres unmarked) have pest or weed control at 500 g/ha under 90%?
Ans. class 0

Qu. Quick check: does `O=P(O)(O)CC[n+]1ccc(-c2ncccn2)cn1` have pest or weed control at 500 g/ha under 90%?
Ans. class 0

Qu. Quick check: does `N#Cc1ccnc(-c2cc[n+](CCO)nc2)n1` have pest or weed control at 500 g/ha under 90%?
Ans. class 1

Qu. Quick check: does N[C@H](CC[n+]1ccc(-c2ncccn2)cn1)C(=O)O [Compound A207, 2,2,2-trifluoroacetate] have pest or weed control at 500 g/ha under 90%?
Ans. class 0

Qu. Quick check: does CC(C[n+]1ccc(-c2ccncn2)cn1)C(=O)O (centres unmarked) have pest or weed control at 500 g/ha under 90%?
Ans. class 0

Qu. Quick check: does `O=S(=O)(O)CC[n+]1ccc(-c2ccncc2F)cn1` have pest or weed control at 500 g/ha under 90%?
Ans. class 0

More entries:
Qu. Quick check: does `O=C(O)c1ccc(C[n+]2ccc(-c3ncccn3)cn2)cc1` have pest or weed control at 500 g/ha under 90%?
Ans. class 1

Qu. Quick check: does `Cc1cc(Cl)cnc1-c1cc[n+](CCC(=O)O)nc1` have pest or weed control at 500 g/ha under 90%?
Ans. class 1

Qu. Quick check: does `CC(C)(C[n+]1ccc(-c2ccncn2)cn1)C(=O)O` have pest or weed control at 500 g/ha under 90%?
Ans. class 1

Qu. Quick check: does `CO[N-]C(=O)CC[n+]1ccc(-c2ncccn2)cn1` have pest or weed control at 500 g/ha under 90%?
Ans. class 0

Qu. Quick check: does `Cc1cc(-c2ncccn2)cn[n+]1CCS(=O)(=O)[O-]` have pest or weed control at 500 g/ha under 90%?
Ans. class 0

Qu. Quick check: does `N#Cc1ccc(-c2cc[n+](CCS(=O)(=O)[O-])nc2)nc1` have pest or weed control at 500 g/ha under 90%?
Ans. class 0

Qu. Quick check: does `O=P([O-])(O)C[n+]1ccc(-c2ncccn2)cn1` have pest or weed control at 500 g/ha under 90%?
Ans. class 1

Qu. Quick check: does `O=S(=O)([O-])OCCC[n+]1ccc(-c2ncccn2)cn1` have pest or weed control at 500 g/ha under 90%?
Ans. class 0

Data origin: patent US20220125051A1
